System: A2780
Test: MTT growth inhibition (in vitro cytotoxicity), A2780
Assay type: cell-based
Conditions: Homo sapiens, average IC50
Observed Property: pIC50
Here pIC50 is given on a logarithmic scale as minus log10 of the concentration in mol/L.

# Structure As Smiles, pIC50
rows = [
    ("COc1ccc2c3c([nH]c2c1)C(CC(CC1=NCCc2c1[nH]c1cc(OC)ccc21)c1ccccc1)=NCC3", 5.53),
    ("COc1cc(C(Cc2nccc3ccccc23)Cc2nccc3ccccc23)ccc1O", 4.56),
    ("COc1cc(C(Cc2ccc3ccccc3n2)Cc2ccc3ccccc3n2)ccc1O", 4.53),
]

Now consider a different compound.
Returns the measured pIC50 for the input compound. Input: c1ccc(C(Cc2ccc3ccccc3n2)Cc2ccc3ccccc3n2)cc1
4.87

###

Test system: A498
Assay: MTT growth inhibition (in vitro cytotoxicity), A498
Assay type: cell-based
Details: Homo sapiens, average IC50
Observed Property: IC50 (µM)
Use µM as the unit, but write only the number.

# Structure As Smiles, Observed Property, Meas Value
measured = [
    ("COc1cc(C(Cc2nccc3ccccc23)Cc2nccc3ccccc23)ccc1O", "IC50", 38.5),
    ("COc1ccc2[nH]c3c(c2c1)CCN=C3CCCCC1=NCCc2c1[nH]c1ccc(OC)cc21", "IC50", 19.2),
]

Returns the measured IC50 for the input compound. Input: c1ccc(C(Cc2ccc3ccccc3n2)Cc2ccc3ccccc3n2)cc1
21.9

###

Test system: KMM-1
Experiment: MTT growth inhibition (in vitro cytotoxicity), KMM-1
Format: cell-based
Details: Homo sapiens, average IC50
pIC50: −log10 of the molar value.
Param threshold (5) applies to pIC50; output condition met when value >= threshold, condition not met when value < threshold.

These solved cases illustrate the format of a correct answer.
# Compound, Study System, Cat
records = [
    ("COc1ccc2[nH]c3c(c2c1)CCN=C3CC(C)(C)CC1=NCCc2c1[nH]c1ccc(OC)cc21", "KMM-1", "condition met"),
    ("COc1ccc2nc(CC(Cc3ccc4cc(OC)ccc4n3)c3ccccc3)ccc2c1", "KMM-1", "condition not met"),
]

Decide: is the reported value of pIC50 for COc1ccc2[nH]c3c(c2c1)CCN=C3CCCC1=NCCc2c1[nH]c1ccc(OC)cc21 equal to or greater than 5?
condition met

Decide: is the reported value of pIC50 for COc1cc(C(Cc2nccc3ccccc23)Cc2nccc3ccccc23)ccc1O equal to or greater than 5?
condition not met

Decide: is the reported value of pIC50 for COc1ccc2c3c([nH]c2c1)C(CC(CC1NCCc2c1[nH]c1cc(OC)ccc21)c1ccccc1)NCC3 (centres unmarked) equal to or greater than 5?
condition met

Decide: is the reported value of pIC50 for COc1cc(C(Cc2ccc3ccccc3n2)Cc2ccc3ccccc3n2)ccc1O equal to or greater than 5?
condition not met

Decide: is the reported value of pIC50 for COc1ccc2c3c([nH]c2c1)C(CC(CC1=NCCc2c1[nH]c1cc(OC)ccc21)c1ccccc1)=NCC3 equal to or greater than 5?
condition met

###

System: JIM1
Assay: MTT growth inhibition (in vitro cytotoxicity), JIM1
Format: cell-based
Conditions: Homo sapiens, average IC50
Listed here: items and their measured IC50.
Use µM as the unit, but write only the number.

# Structure As Smiles, Meas Value
records = [
    ("COc1ccc2c3c([nH]c2c1)C(CC(CC1=NCCc2c1[nH]c1cc(OC)ccc21)c1ccccc1)=NCC3", 2.22),
    ("COc1ccc2c3c([nH]c2c1)C(CC(CC1=NCCc2c1[nH]c1cc(OC)ccc21)c1ccc(O)c(OC)c1)=NCC3", 3.17),
    ("COc1cc(C(Cc2nccc3ccccc23)Cc2nccc3ccccc23)ccc1O", 29.2),
]

GET /values?readout=IC50&system=JIM1&item= COc1ccc2nc(CC(Cc3ccc4cc(OC)ccc4n3)c3ccccc3)ccc2c1
31.7

###

Tested on: A2780
Experiment: MTT growth inhibition (in vitro cytotoxicity), A2780
Assay type: cell-based
Conditions: Homo sapiens, average IC50
Description: The following Table sets forth the IC50 values of harmaline and quinoline analogs against 23 human cancer cell lines. Growth inhibition effects (in vitro cytotoxicity) on pancreatic, endometrial, breast, lung, ovarian, renal, cervical, lymphoma, and myeloma cancer cells were determined by MTT assays and represented by average IC50 values. In the Table, the results are given in terms of μM, and nd=not determined.
Observed Property: IC50 (µM)
Use µM as the unit, but write only the number.

# Compound, Units, IC50
rows = [
    ("COc1ccc2nc(CC(Cc3ccc4cc(OC)ccc4n3)c3ccccc3)ccc2c1", "µM", 25.6),
    ("COc1ccc2[nH]c3c(c2c1)CCN=C3CC(C)(C)CC1=NCCc2c1[nH]c1ccc(OC)cc21", "µM", 1.38),
    ("COc1ccc2[nH]c3c(c2c1)CCN=C3CCCCC1=NCCc2c1[nH]c1ccc(OC)cc21", "µM", 11.6),
]

GET /values?readout=IC50&system=A2780&item= COc1ccc2c3c([nH]c2c1)C(CC(CC1NCCc2c1[nH]c1cc(OC)ccc21)c1ccc(O)c(OC)c1)NCC3 (stereo not shown)
6.14

###

System: JIM1
Experiment: MTT growth inhibition (in vitro cytotoxicity), JIM1
Assay type: cell-based
Details: Homo sapiens, average IC50
Listed here: items and their measured pIC50.
Here pIC50 is given on a logarithmic scale as minus log10 of the concentration in mol/L.

# count of solved cases: 6
# Molecule, pIC50
rows = [
    ("COc1ccc2[nH]c3c(c2c1)CCN=C3CC(C)(C)CC1=NCCc2c1[nH]c1ccc(OC)cc21", 5.59),
    ("COc1ccc2[nH]c3c(c2c1)CCN=C3CCCC1=NCCc2c1[nH]c1ccc(OC)cc21", 5.21),
    ("COc1ccc2c3c([nH]c2c1)C(CC(CC1NCCc2c1[nH]c1cc(OC)ccc21)c1ccccc1)NCC3 (stereo not shown)", 5.62),
    ("COc1cc(C(Cc2ccc3ccccc3n2)Cc2ccc3ccccc3n2)ccc1O", 4.45),
    ("COc1ccc2[nH]c3c(c2c1)CCN=C3CCCCC1=NCCc2c1[nH]c1ccc(OC)cc21", 4.67),
    ("COc1ccc2c3c([nH]c2c1)C(CC(CC1NCCc2c1[nH]c1cc(OC)ccc21)c1ccc(O)c(OC)c1)NCC3 (stereo not shown)", 5.64),
]

Returns the measured pIC50 for the input molecule. Input: c1ccc(C(Cc2ccc3ccccc3n2)Cc2ccc3ccccc3n2)cc1
4.96

###

System: MOLP-8
Test: MTT growth inhibition (in vitro cytotoxicity), MOLP-8
Assay type: cell-based
Conditions: Homo sapiens, average IC50
Listed here: items and their measured IC50.
Use µM as the unit, but write only the number.

# count of solved cases: 3
# Molecule, IC50, µM
records = [
    ("COc1cc(C(Cc2nccc3ccccc23)Cc2nccc3ccccc23)ccc1O [Compound 13]", 9.71),
    ("COc1ccc2[nH]c3c(c2c1)CCN=C3CC(C)(C)CC1=NCCc2c1[nH]c1ccc(OC)cc21 [Compound 8]", 0.67),
    ("COc1cc(C(Cc2ccc3ccccc3n2)Cc2ccc3ccccc3n2)ccc1O [Compound 16]", 16),
]

Now consider a different molecule.
GET /values?readout=IC50&system=MOLP-8&item= COc1ccc2[nH]c3c(c2c1)CCN=C3CCCC1=NCCc2c1[nH]c1ccc(OC)cc21 [Compound 7]
1.88

###

Listed here: items and their measured pIC50.
Test system: MIA Paca-2
Assay: MTT growth inhibition (in vitro cytotoxicity), MIA Paca-2
Assay type: cell-based
Settings: Homo sapiens, average IC50
Here pIC50 is given on a logarithmic scale as minus log10 of the concentration in mol/L.

# count of solved cases: 2
# Molecule, pIC50
measured = [
    ("COc1ccc2c3c([nH]c2c1)C(CC(CC1=NCCc2c1[nH]c1cc(OC)ccc21)c1ccc(O)c(OC)c1)=NCC3", 5.54),
    ("COc1ccc2c3c([nH]c2c1)C(CC(CC1NCCc2c1[nH]c1cc(OC)ccc21)c1ccc(O)c(OC)c1)NCC3 (centres unmarked)", 5.60),
]

Returns the measured pIC50 for the input molecule. Input: COc1ccc2[nH]c3c(c2c1)CCN=C3CC(C)(C)CC1=NCCc2c1[nH]c1ccc(OC)cc21
5.91

###

Tested on: L363
Assay: MTT growth inhibition (in vitro cytotoxicity), L363
Assay type: cell-based
Details: Homo sapiens, L-363, average IC50
Listed here: items and their measured IC50.
Use nM as the unit, but write only the number.

# Molecule, Observed Property, Meas Value
measured = [
    ("COc1ccc2[nH]c3c(c2c1)CCN=C3CC(C)(C)CC1=NCCc2c1[nH]c1ccc(OC)cc21", "IC50", 1210),
]

Returns the measured IC50 for the input molecule. Input: COc1ccc2[nH]c3c(c2c1)CCN=C3CCCCC1=NCCc2c1[nH]c1ccc(OC)cc21
8340

Returns the measured IC50 for the input molecule. Input: c1ccc(C(Cc2ccc3ccccc3n2)Cc2ccc3ccccc3n2)cc1
7990

Returns the measured IC50 for the input molecule. Input: COc1cc(C(Cc2nccc3ccccc23)Cc2nccc3ccccc23)ccc1O
29200

Returns the measured IC50 for the input molecule. Input: COc1ccc2c3c([nH]c2c1)C(CC(CC1NCCc2c1[nH]c1cc(OC)ccc21)c1ccccc1)NCC3 (centres unmarked)
1920

Returns the measured IC50 for the input molecule. Input: COc1ccc2c3c([nH]c2c1)C(CC(CC1NCCc2c1[nH]c1cc(OC)ccc21)c1ccc(O)c(OC)c1)NCC3 (centres unmarked)
2170

Returns the measured IC50 for the input molecule. Input: COc1cc(C(Cc2ccc3ccccc3n2)Cc2ccc3ccccc3n2)ccc1O
29500

Returns the measured IC50 for the input molecule. Input: COc1ccc2nc(CC(Cc3ccc4cc(OC)ccc4n3)c3ccccc3)ccc2c1
17400

Returns the measured IC50 for the input molecule. Input: COc1ccc2c3c([nH]c2c1)C(CC(CC1=NCCc2c1[nH]c1cc(OC)ccc21)c1ccc(O)c(OC)c1)=NCC3
2690

Returns the measured IC50 for the input molecule. Input: COc1ccc2[nH]c3c(c2c1)CCN=C3CCCC1=NCCc2c1[nH]c1ccc(OC)cc21
2470

Returns the measured IC50 for the input molecule. Input: COc1ccc2c3c([nH]c2c1)C(CC(CC1=NCCc2c1[nH]c1cc(OC)ccc21)c1ccccc1)=NCC3
1400
